experimentNotes: Henry solubility constant Hcp at 298.15 K (mol/(m3 Pa))
settings: reference: Pfeifer et al. (2001)
measureName: Henry solubility constant Hcp

[[record]]
smilesrepr = "COc1c(Br)cc(Cl)cc1Br"
measurename = "Henry solubility constant Hcp"
assayresult = 0.011

[[record]]
smilesrepr = "COc1cccc(Br)c1"
measurename = "Henry solubility constant Hcp"
assayresult = 0.0072


[1] COc1c(Br)cccc1Br
[2] COc1cc(Cl)cc(Cl)c1
[3] COc1c(Br)ccc(Cl)c1Cl
[4] COc1cc(Cl)c(Cl)c(Cl)c1Cl
[5] COc1cc(Cl)ccc1Cl
Query :: // sort entries: Henry solubility constant Hcp, high to low Reply: labels, ordered per the request.
Result :: 1, 5, 3, 4, 2
(1: 0.037, 5: 0.021, 3: 0.011, 4: 0.0065, 2: 0.0023)

[A] COc1ccc(Br)c(Cl)c1Cl
[B] COc1c(Cl)c(Cl)c(Cl)c(Cl)c1Cl
Query :: Input pair: A , B . Output: entry with lower Henry solubility constant Hcp. Kindly give the label for the entry you pick.
Result :: B

[A] COc1c(Cl)cccc1Cl
[B] COc1c(Cl)cccc1Br
[C] COc1cccc(Cl)c1
Query :: Arrange items by their Henry solubility constant Hcp values in increasing order. Reply: labels, ordered per the request.
Result :: A, B, C
(A: 0.0088, B: 0.014, C: 0.045)

[P] COc1cc(Cl)c(Br)c(Cl)c1
[Q] COc1ccc(Cl)cc1Br
Query :: // which entry has the larger Henry solubility constant Hcp value, P or Q ? Kindly give the label for the entry you pick.
Result :: Q

* * *

experimentNotes: Henry solubility constant Hcp at 298.15 K (mol/(m3 Pa))
settings: reference: Pfeifer et al. (2001)
measureName: Henry solubility constant Hcp

As a guide, the following entries are already answered.
[[record]]
smilesrepr = "COc1ccccc1Br"
assayresult = 0.029

[[record]]
smilesrepr = "COc1c(Br)c(Br)c(Br)c(Br)c1Br"
assayresult = 1

[[record]]
smilesrepr = "COc1c(Cl)c(Cl)cc(Cl)c1Cl"
assayresult = 0.0032

[[record]]
smilesrepr = "COc1cc(Cl)cc(Cl)c1Br"
assayresult = 0.011

[[record]]
smilesrepr = "COc1c(Cl)cc(Br)c(Cl)c1Cl"
assayresult = 0.01

[[record]]
smilesrepr = "COc1c(Cl)cc(Cl)c(Br)c1Cl"
assayresult = 0.01


[1] COc1cc(Br)c(Cl)cc1Cl
[2] COc1ccc(Br)cc1Br
Query :: Input pair: 1 , 2 . Output: entry with lower Henry solubility constant Hcp. Kindly give the label for the entry you pick.
Result :: 1

* * *

experimentNotes: Henry solubility constant Hcp at 298.15 K (mol/(m3 Pa))
settings: reference: Pfeifer et al. (2001)
measureName: Henry solubility constant Hcp

As a guide, the following entries are already answered.
[[record]]
smilesrepr = "COc1ccc(Cl)c(Cl)c1Cl"
assayresult = 0.013

[[record]]
smilesrepr = "COc1c(Cl)cc(Cl)cc1Br"
assayresult = 0.012

[[record]]
smilesrepr = "COc1ccc(Cl)cc1Cl"
assayresult = 0.012

[[record]]
smilesrepr = "COc1cc(Cl)c(Cl)c(Cl)c1"
assayresult = 0.0044

[[record]]
smilesrepr = "COc1ccc(Br)cc1Cl"
assayresult = 0.013

[[record]]
smilesrepr = "COc1c(Cl)cc(Cl)c(Cl)c1Cl"
assayresult = 0.0031

[[record]]
smilesrepr = "COc1cc(Cl)c(Br)c(Cl)c1Br"
assayresult = 0.0091


[P] COc1c(Br)cc(Br)c(Cl)c1Cl
[Q] COc1cccc(Cl)c1Cl
Query :: // which entry has the larger Henry solubility constant Hcp value, P or Q ? Kindly give the label for the entry you pick.
Result :: Q
